Biological target: human muscarinic M3 receptors (Homo sapiens, UniProt P20309)
Construct: expressed in transfected cells; host or cells: Chinese hamster ovary-K1 (CHO) cells, membrane preparations
Sequence (P20309 whole entry): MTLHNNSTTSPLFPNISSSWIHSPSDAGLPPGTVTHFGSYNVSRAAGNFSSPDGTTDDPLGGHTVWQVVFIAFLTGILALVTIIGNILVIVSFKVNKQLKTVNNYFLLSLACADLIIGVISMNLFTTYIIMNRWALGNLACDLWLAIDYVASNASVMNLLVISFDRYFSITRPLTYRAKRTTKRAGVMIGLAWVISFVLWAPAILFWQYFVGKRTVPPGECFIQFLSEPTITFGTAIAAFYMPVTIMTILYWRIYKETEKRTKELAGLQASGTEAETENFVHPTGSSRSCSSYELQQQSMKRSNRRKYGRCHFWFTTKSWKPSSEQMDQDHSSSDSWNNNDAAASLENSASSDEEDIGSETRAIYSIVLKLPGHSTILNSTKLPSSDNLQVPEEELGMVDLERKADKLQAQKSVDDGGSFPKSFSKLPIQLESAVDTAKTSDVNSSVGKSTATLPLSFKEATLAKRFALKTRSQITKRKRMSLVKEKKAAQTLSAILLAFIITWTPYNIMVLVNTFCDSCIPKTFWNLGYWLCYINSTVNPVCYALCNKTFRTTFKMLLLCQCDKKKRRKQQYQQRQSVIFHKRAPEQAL
Test: biochemical
Type: binding
Conditions: [3H]-NMS displacement, membranes of CHO-K1 cells expressing human M3, 25° C., 60 min; read-out: BINDING TO RECPTOR M3 (IC50 nM)
Experimental: The binding of [^3H]-NMS to human muscarinic receptors was performed according to Waelbroek et al (1990), Mol. Pharmacol., 38:267–273. Assays were carried out at 25° C. Membrane preparations from stably transfected Chinese hamster ovary-K1 cells (CHO) expressing the genes for the human muscarinic M3 receptors were used. For determination of IC50, membrane preparations were suspended in DPBS to a final concentration of 89 μg/ml for the M3 subtype. […]
Kindly apply the following: MET if IC50 is less than 9 nM, NOT MET in every other case.

# input # check: IC50 < 9 nM for CCCCN(C(=O)O[C@H]1C[N+]2(CC=Cc3ccccc3)CCC1CC2)c1ccccc1.[Br-]
# output MET

# input Check O=C(O[C@H]1C[N+]2(CCCc3ccccc3)CCC1CC2)N(Cc1ccccc1)c1ccccc1.[Br-] too.
# output MET

# input Check O=C(O[C@H]1C[N+]2(CCCc3ccccc3)CCC1CC2)N(Cc1cccs1)Cc1cccs1 too.
# output NOT MET

# input Check O=C(O[C@H]1CN2CCC1CC2)N(Cc1ccco1)Cc1ccco1 too.
# output NOT MET

# input Check O=C(O[C@H]1C[N+]2(CCCc3cccs3)CCC1CC2)N(Cc1cccs1)Cc1cccs1 too.
# output NOT MET

# input Check O=C(O[C@H]1C[N+]2(CCOc3ccccc3)CCC1CC2)N(Cc1ccccc1)c1ccccc1 too.
# output MET
